Data provenance: paper PMC7006757

// reported melting point for each item listed

For orientation, consider the following solved cases.
{"compound": "Cn1c(COc2ccc(/C=N/c3ccc(F)cc3)cc2)nc2ccccc2c1=O [5h]", "test-value": "200 to 202 °C"}
{"compound": "Cn1c(COc2ccc(/C=N/c3cccc(F)c3)cc2)nc2ccccc2c1=O [5g]", "test-value": "168 to 170 °C"}
{"compound": "Cc1ccccc1/N=C/c1ccc(OCc2nc3ccccc3c(=O)n2C)cc1 [5b]", "test-value": "162 to 164 °C"}
{"compound": "Cn1c(COc2ccc(/C=N/c3ccc(F)c(F)c3)cc2)nc2ccccc2c1=O [5k]", "test-value": "152 to 154 °C"}
{"compound": "Cn1c(COc2ccc(/C=N/c3ccccc3)cc2)nc2ccccc2c1=O [5a]", "test-value": "150 to 152 °C"}

Which melting point value belongs to Cn1c(COc2ccc(/C=N/c3ccc(F)c(Cl)c3)cc2)nc2ccccc2c1=O [5o] ?
188 to 189 °C

Which melting point value belongs to Cn1c(COc2ccc(/C=N/c3cc(F)cc(F)c3)cc2)nc2ccccc2c1=O [5l] ?
220 to 221 °C

====

// reported inhibition at 1 µM for each item listed
# study-target: EGFR^wt-TK (Homo sapiens)
# Construct: purchased Sino Biology Inc
# Sequence (P00533 25-1210): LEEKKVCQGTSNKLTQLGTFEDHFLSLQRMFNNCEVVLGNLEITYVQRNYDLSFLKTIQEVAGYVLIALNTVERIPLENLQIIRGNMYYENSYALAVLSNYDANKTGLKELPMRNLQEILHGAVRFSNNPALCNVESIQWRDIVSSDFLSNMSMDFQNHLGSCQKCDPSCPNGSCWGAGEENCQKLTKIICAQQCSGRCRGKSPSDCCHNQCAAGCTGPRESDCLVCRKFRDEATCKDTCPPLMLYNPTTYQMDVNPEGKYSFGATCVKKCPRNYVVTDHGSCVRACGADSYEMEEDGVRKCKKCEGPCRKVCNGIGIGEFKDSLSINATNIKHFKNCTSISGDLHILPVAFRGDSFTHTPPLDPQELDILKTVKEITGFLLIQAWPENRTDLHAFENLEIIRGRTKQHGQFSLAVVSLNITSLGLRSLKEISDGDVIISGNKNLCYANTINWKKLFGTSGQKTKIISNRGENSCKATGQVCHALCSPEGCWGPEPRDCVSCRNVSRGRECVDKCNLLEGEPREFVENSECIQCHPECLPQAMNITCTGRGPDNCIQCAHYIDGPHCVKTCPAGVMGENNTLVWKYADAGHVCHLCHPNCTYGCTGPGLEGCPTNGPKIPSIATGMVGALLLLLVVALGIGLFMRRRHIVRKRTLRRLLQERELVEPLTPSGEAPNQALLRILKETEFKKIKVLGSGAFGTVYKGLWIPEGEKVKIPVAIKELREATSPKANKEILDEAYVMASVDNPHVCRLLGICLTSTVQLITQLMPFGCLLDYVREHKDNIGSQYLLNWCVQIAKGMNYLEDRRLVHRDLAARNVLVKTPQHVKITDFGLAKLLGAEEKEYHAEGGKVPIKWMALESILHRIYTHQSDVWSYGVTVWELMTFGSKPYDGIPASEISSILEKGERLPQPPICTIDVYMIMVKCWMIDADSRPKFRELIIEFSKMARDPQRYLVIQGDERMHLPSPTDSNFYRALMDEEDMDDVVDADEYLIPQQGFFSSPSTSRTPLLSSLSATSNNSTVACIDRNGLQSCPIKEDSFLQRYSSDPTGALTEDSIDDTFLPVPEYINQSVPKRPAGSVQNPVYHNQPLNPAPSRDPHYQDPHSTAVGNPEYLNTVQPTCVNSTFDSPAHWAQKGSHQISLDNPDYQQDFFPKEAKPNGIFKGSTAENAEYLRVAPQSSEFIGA
# assay: In vitro EGFR^wt-TK assay (ELISA with recombinant EGFR)
# Assay type: biochemical
# setup-conditions: 1 μM; mean ± SD of three replicates; read-out: EGFR^wt-TK inhibition rate (%, 1 μM)
Kindly provide the numeric value in % only, without the unit symbol.

{"molecule": "Cc1ccc(/N=C/c2ccc(OCc3nc4ccccc4c(=O)n3C)cc2)cc1", "test-value": 50.8}

Which inhibition at 1 µM value belongs to "Cc1ccccc1/N=C/c1ccc(OCc2nc3ccccc3c(=O)n2C)cc1" ?
2.57

Which inhibition at 1 µM value belongs to O=c1[nH]cc(F)c(=O)[nH]1 [5-Fluorouracil, reference compound] ?
63.4

Which inhibition at 1 µM value belongs to "Cn1c(COc2ccc(/C=N/c3ccc(Cl)c(C(F)(F)F)c3)cc2)nc2ccccc2c1=O" ?
4.32
